Below is a list of entries, each paired with its recorded IC50 value.
Species on record: Homo sapiens
measurementDescription: Inhibition of LPS-induced TNF-alpha production in human whole blood.
Format: functional, organism-based
Enter your answer as a number in µM; do not include the unit.

compound	quantityUnit	IC50
CC(C)(Nc1ccc(C(Cc2cc[n+]([O-])cc2)c2ccc(OC(F)F)c(OC(F)F)c2)cn1)c1ccccc1 (stereo in doubt; (+)-3n)	µM	10
CC(C)(Nc1ccc(C(Cc2cc[n+]([O-])cc2)c2ccc(OC(F)F)c(OC(F)F)c2)cn1)c1ccccc1 (single isomer, unassigned; (-))	µM	0.1

Now take the following compound into account.
Which value of IC50 has been reported for CC(C)(Nc1ccc(C(Cc2cc[n+]([O-])cc2)c2ccc(OC(F)F)c(OC(F)F)c2)cn1)c1ccccc1 (stereo in doubt; 3n) in the records?
0.2
